Ref: patent US20200131196A1

assayText: Pharmacokinetics in male Sprague Dawley rats (intravenous and oral)
Assay type: in vivo, rat
conditionsUsed: male, Sprague Dawley, rat, blood, po, 10 mg/kg; read-out: oral bioavailability
Description: Table 6 provides the pharmacokinetic parameters of Example (I) in male Sprague Dawley rats after a single bolus intravenous dose of 2 mg/kg. […] These parameters are then analyzed by non-compartmental or compartmental methods to give a calculated percentage bioavailability, for an example of this type of method see Gallant-[…] et al, 2000 and […] et al, 1998, and references therein.
measurementType: bioavailability

Qu. # get_value(readout='bioavailability', item= CO[C@H]1C[C@@H]2CC[C@@H](C)[C@@](O)(O2)C(=O)C(=O)N2CCCC[C@H]2C(=O)O[C@H]([C@H](C)C[C@H]2C[C@H]3C[C@@H]2C[C@@H]3O)CC(=O)[C@H](C)/C=C(\C)[C@@H](O)[C@@H](OC)C(=O)[C@H](C)C[C@H](C)/C=C/C=C/C=C/1C [Formula II] )
Ans. ~47%

----------
Tested on: TF-1
assayText: OncoPanel cell proliferation assay, TF-1
Assay type: cell-based, human
conditionsUsed: Homo sapiens, read-out: Cell Count IC50
pIC50: −log10 of the molar value.
Items are presented alongside their recorded pIC50.

In the examples that follow, each entry is paired with its recorded pIC50.
>>> valuereported("CN[C@@H]1C[C@H]2O[C@@](C)([C@@H]1OC)n1c3ccccc3c3c4c(c5c6ccccc6n2c5c31)C(=O)NC4 [Staurosporine, reference compound]")
7.92
>>> valuereported("CO[C@H]1C[C@@H]2CC[C@@H](C)[C@@](O)(O2)C(=O)C(=O)N2CCCC[C@H]2C(=O)O[C@H]([C@H](C)C[C@@H]2CC[C@@H](O)[C@H](OC)C2)CC(=O)[C@H](C)/C=C(\\C)[C@@H](O)[C@@H](OC)C(=O)[C@H](C)C[C@H](C)/C=C/C=C/C=C/1C [Rapamycin, reference compound]")
"< 6.00"

Qu. Need pIC50, item CO[C@H]1C[C@@H]2CC[C@@H](C)[C@@](O)(O2)C(=O)C(=O)N2CCCC[C@H]2C(=O)O[C@H]([C@H](C)C[C@H]2C[C@H]3C[C@@H]2C[C@@H]3O)CC(=O)[C@H](C)/C=C(\C)[C@@H](O)[C@@H](OC)C(=O)[C@H](C)C[C@H](C)/C=C/C=C/C=C/1C [Formula II]
Ans. < 6.00

----------
assayText: Pharmacokinetics in male Sprague Dawley rats (intravenous and oral)
Format: in vivo, rat
conditionsUsed: rat, blood; male Sprague Dawley rats; single bolus intravenous dose of 2 mg/kg; read-out: AUC 0-infinity_observed
measurementType: AUC (ng·h/mL)
# number only, unit ng·h/mL dropped from output

Qu. Consider the compound shown here: CO[C@H]1C[C@@H]2CC[C@@H](C)[C@@](O)(O2)C(=O)C(=O)N2CCCC[C@H]2C(=O)O[C@H]([C@H](C)C[C@H]2C[C@H]3C[C@@H]2C[C@@H]3O)CC(=O)[C@H](C)/C=C(\C)[C@@H](O)[C@@H](OC)C(=O)[C@H](C)C[C@H](C)/C=C/C=C/C=C/1C What is its recorded AUC?
Ans. 769

----------
assayText: Whole blood concentrations in mice after IP dosing (LC-MS/MS)
Assay type: in vivo, mouse
conditionsUsed: mouse, whole blood, intraperitoneal, 2 mg/kg, about 2 mg/kg; at about 24 hours following administration; read-out: approximate mean concentration in whole blood
measurementType: concentration at 24 h

Qu. Returns the measured concentration at 24 h for the input compound. Input: CO[C@H]1C[C@@H]2CC[C@@H](C)[C@@](O)(O2)C(=O)C(=O)N2CCCC[C@H]2C(=O)O[C@H]([C@H](C)C[C@H]2C[C@H]3C[C@@H]2C[C@@H]3O)CC(=O)[C@H](C)/C=C(\C)[C@@H](O)[C@@H](OC)C(=O)[C@H](C)C[C@H](C)/C=C/C=C/C=C/1C [Formula II]
Ans. 15 to 43.7 ng/mL
